Tested on: Nakaseomyces glabratus
Assay: Antifungal activity against Candida glabrata 537 assessed as inhibition of fungal growth incubated for 48 hrs by microbroth dilution method
Type: functional
Listed here: items and their measured MIC.
property: MIC

structure_string=C[C@@H](OCC#Cc1c(F)cccc1F)[C@](O)(Cn1cncn1)c1ccc(F)cc1F assayed_system="Nakaseomyces glabratus" property=MIC val="0.25 µg/mL"
structure_string=C[C@@H](OCC#Cc1cc(F)ccc1F)[C@](O)(Cn1cncn1)c1ccc(F)cc1F assayed_system="Nakaseomyces glabratus" property=MIC val="≤ 0.125 µg/mL"
structure_string=C[C@@H](OCC#Cc1ccc(C#N)cc1)[C@](O)(Cn1cncn1)c1ccc(F)cc1F assayed_system="Nakaseomyces glabratus" property=MIC val="≤ 0.125 µg/mL"
structure_string=C[C@@H](OCC#Cc1cccc(F)c1F)[C@](O)(Cn1cncn1)c1ccc(F)cc1F assayed_system="Nakaseomyces glabratus" property=MIC val="≤ 0.125 µg/mL"
structure_string=Cc1ccc(C#CCO[C@H](C)[C@](O)(Cn2cncn2)c2ccc(F)cc2F)cc1 assayed_system="Nakaseomyces glabratus" property=MIC val="≤ 0.125 µg/mL"
structure_string=C[C@@H](OCC#Cc1c(F)cc(F)cc1F)[C@](O)(Cn1cncn1)c1ccc(F)cc1F assayed_system="Nakaseomyces glabratus" property=MIC val="≤ 0.125 µg/mL"
structure_string=C[C@@H](OCC#Cc1cccc(F)c1)[C@](O)(Cn1cncn1)c1ccc(F)cc1F assayed_system="Nakaseomyces glabratus" property=MIC val="≤ 0.125 µg/mL"
structure_string=C[C@@H](OCC#Cc1ccc(F)cc1)[C@](O)(Cn1cncn1)c1ccc(F)cc1F assayed_system="Nakaseomyces glabratus" property=MIC val="≤ 0.125 µg/mL"
structure_string=C[C@@H](OCC#Cc1cccc(Cl)c1)[C@](O)(Cn1cncn1)c1ccc(F)cc1F assayed_system="Nakaseomyces glabratus" property=MIC val="0.5 µg/mL"
structure_string=Cc1cccc(C#CCO[C@H](C)[C@](O)(Cn2cncn2)c2ccc(F)cc2F)c1 assayed_system="Nakaseomyces glabratus" property=MIC val="0.25 µg/mL"

----------
# Cytochrome P450 3A4 (Homo sapiens, UniProt P08684): IC50 values follow
# Sequence (P08684 whole entry): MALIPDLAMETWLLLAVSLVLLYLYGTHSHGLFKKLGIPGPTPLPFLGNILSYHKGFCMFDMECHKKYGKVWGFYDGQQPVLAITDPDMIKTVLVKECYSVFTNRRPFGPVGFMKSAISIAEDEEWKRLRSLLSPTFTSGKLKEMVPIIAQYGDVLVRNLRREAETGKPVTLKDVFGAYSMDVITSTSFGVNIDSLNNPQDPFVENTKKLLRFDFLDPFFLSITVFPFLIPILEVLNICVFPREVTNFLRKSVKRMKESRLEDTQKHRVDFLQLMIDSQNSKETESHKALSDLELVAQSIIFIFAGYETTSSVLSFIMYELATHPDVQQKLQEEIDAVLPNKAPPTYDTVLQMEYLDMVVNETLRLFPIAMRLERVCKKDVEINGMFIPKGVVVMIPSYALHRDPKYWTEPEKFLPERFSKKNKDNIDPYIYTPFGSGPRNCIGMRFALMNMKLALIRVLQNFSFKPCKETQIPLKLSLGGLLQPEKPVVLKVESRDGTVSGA
property: IC50 (nM)

structure_string=C[C@@H](OCC#Cc1ccc(C#N)cc1)[C@](O)(Cn1cncn1)c1ccc(F)cc1F property=IC50 val=607
structure_string=C[C@@H](OCC#Cc1ccc(F)cc1F)[C@](O)(Cn1cncn1)c1ccc(F)cc1F property=IC50 val=566
structure_string=C[C@@H](OCC#Cc1ccncc1)[C@](O)(Cn1cncn1)c1ccc(F)cc1F property=IC50 val=309

----------
Tested on: Candida albicans
Experiment: Antibiofilm activity against Candida albicans SC5314 preformed biofilms at 64 ug/ml incubated for 24 hrs by XTT reduction assay relative to control
Type: functional
Design: scale not given: the % may be the effect or the level left
Details: dose 64 µg/ml
Listed here: items and their measured Activity.
property: Activity (%)

structure_string=C[C@@H](OCC#Cc1ccc(F)cc1F)[C@](O)(Cn1cncn1)c1ccc(F)cc1F val=51.39
structure_string=C[C@@H](OCC#Cc1ccncc1)[C@](O)(Cn1cncn1)c1ccc(F)cc1F val=50.31
structure_string=OC(Cn1cncn1)(Cn1cncn1)c1ccc(F)cc1F val=33.39
structure_string=C[C@@H](OCC#Cc1ccc(C#N)cc1)[C@](O)(Cn1cncn1)c1ccc(F)cc1F val=55.46
